T/C overview
- System: L1210 leukemia ip in BDF1 mice, survival T/C
- test-details: NCI In Vivo Anticancer Drug Screen. Data for tumor model L1210 Leukemia (intraperitoneal) in B6D2F1 (BDF1) mice
- test-context: endpoint: mean survival time; dose: 100.0 mg/kg/injection; schedule: Q04DX002 (ip); vehicle: Klucel (hydroxypropylcellulose) (HPC); higher = longer survival
Inconclusive results and toxic doses are left out.
outcome-measure: T/C

INSERT INTO assay_data (molecule, recorded_result) VALUES
  ('CCCCCC(=O)N1CC(C)OC(C)C1 (stereo not given)', '94 % of control'),
  ('Cn1cnc2cc(N=Cc3ccc(N(CCCl)CCCl)cc3Cl)ccc21', '108 % of control'),
  ('Cc1ccc(N2C(=O)CSC2=S)cc1F', '96 % of control'),
  ('CCOC(=O)CCc1c(C(=O)OCC)[nH]c2ccc(Cl)cc12', '96 % of control'),
  ('O=C(O)c1ccc(NC(=S)S)cc1', '103 % of control');
